# Test system: CFPAC-1
# method.summary: Cytotoxicity against human CFPAC-1 cells measured after 8 days
# Format: functional, cell-based
# reported.conditions: CFPAC-1, 192 h
Assign pIC50 to each entry below.
One number for each entry, as −log10 of the molar value.

> print(dat)
                         compound.structure  parameter.measured  measured.number
1  C/C=C/Cn1cc(-c2ccc(C(=O)N3CCOCC3)cc2)c2cc[nH]c2c1=O               pIC50             4.70

Turning now to a further molecule:
q: Reported pIC50 for C/C=C/Cn1cc(-c2ccc(C(C)(C)O)cc2OC)c2cc[nH]c2c1=O : what is it?
a: 4.70

---

# Test system: OCI-AML2
# method.summary: Cytotoxicity against human OCI-AML2 cells measured after 3 days
# Assay type: functional, cell-based
# reported.conditions: OCI-AML2, 72 h
parameter.measured: IC50 (µM)
Numbers only, in µM.

q: Query IC50 on OCI-AML2 for C/C=C/Cn1cc(-c2cc(OC)c(C(=O)N3CCOCC3)cc2OC)c2cc(C)[nH]c2c1=O
a: 5

---

# Tested on: Granta-519
# method.summary: Cytotoxicity against human Granta-519 cells measured after 3 days
# Assay type: functional, cell-based
# reported.conditions: Granta-519, 72 h
parameter.measured: IC50 (µM)
One number for each entry, in µM.

q: Reported IC50 for C/C=C/Cn1cc(-c2cc(OC)c(C(=O)N3CCOCC3)cc2OC)c2cc(C)[nH]c2c1=O : what is it?
a: 5

---

Assign pIC50 to each entry below.
# method.summary: Cytotoxicity against human SM1 cells measured after 8 days
# Assay type: functional, cell-based
# reported.conditions: SM1, 192 h
One number for each entry, as −log10 of the molar value.

> print(dat)
                         compound.structure  measured.number
1  C/C=C/Cn1cc(-c2ccc(C(=O)N3CCOCC3)cc2)c2cc[nH]c2c1=O             4.75

Turning now to a further molecule:
q: Reported pIC50 for C/C=C/Cn1cc(-c2ccc(C(C)(C)O)cc2OC)c2cc[nH]c2c1=O : what is it?
a: 4.95

---

# System: LXF-289 cell line
# method.summary: Cytotoxicity against human LXF-289 cell line measured after 8 days
# Type: functional, cell-based
# reported.conditions: LXF-289, 192 h
Assign IC50 to each entry below.

> print(dat)
                         compound.structure  parameter.measured  result
1  C/C=C/Cn1cc(-c2ccc(C(C)(C)O)cc2OC)c2cc[nH]c2c1=O                IC50   20 µM
2  C/C=C/Cn1cc(-c2ccc(C(=O)N3CCOCC3)cc2)c2cc[nH]c2c1=O                IC50   20 µM

Turning now to a further compound:
q: Reported IC50 for C/C=C/Cn1cc(-c2cc(OC)c(C(=O)N3CCOCC3)cc2OC)c2cc(C)[nH]c2c1=O : what is it?
a: 2 µM

---

# method.summary: Cytotoxicity against mouse 4T1-Luc cells measured after 8 days
# Assay type: functional, cell-based
# reported.conditions: 192 h
parameter.measured: pIC50
One number for each entry, as −log10 of the molar value.

> print(dat)
                         compound.structure  measured.number
1  C/C=C/Cn1cc(-c2ccc(C(C)(C)O)cc2OC)c2cc[nH]c2c1=O             4.70

Turning now to a further compound:
q: Reported pIC50 for C/C=C/Cn1cc(-c2ccc(C(=O)N3CCOCC3)cc2)c2cc[nH]c2c1=O : what is it?
a: 4.70

---

Assign pKd to each entry below.
# target.or.system: Bromodomain-containing protein 4 (Homo sapiens, UniProt O60885)
# method.summary: Binding affinity to human partial length BRD4 bromodomain 2 long isoform (K333 to E460 residues) expressed in bacterial expression system by BROMOscan assay
Answers are plain numbers, as −log10 of the molar value.

> print(dat)
                         compound.structure  measured.number
1  C/C=C/Cn1cc(-c2ccc(C(C)(C)O)cc2OC)c2cc[nH]c2c1=O             5.43

q: Reported pKd for C/C=C/Cn1cc(-c2ccc(C(=O)N3CCOCC3)cc2)c2cc[nH]c2c1=O : what is it?
a: 5.18

---

Assign pIC50 to each entry below.
# System: CAKI-1
# method.summary: Cytotoxicity against human CAKI-1 cells measured after 8 days
# Assay type: functional, cell-based
# reported.conditions: CAKI-1, 192 h
Answers are plain numbers, as −log10 of the molar value.

> print(dat)
                         compound.structure  parameter.measured  measured.number
1  C/C=C/Cn1cc(-c2ccc(C(=O)N3CCOCC3)cc2)c2cc[nH]c2c1=O               pIC50             4.70

q: Query pIC50 on CAKI-1 for C/C=C/Cn1cc(-c2ccc(C(C)(C)O)cc2OC)c2cc[nH]c2c1=O
a: 4.70

---

# Tested on: MC-IXC
# method.summary: Cytotoxicity against human MC-IXC cells measured after 8 days
# Assay type: functional, cell-based
# reported.conditions: 192 h
parameter.measured: pIC50
One number for each entry, as −log10 of the molar value.

> print(dat)
                         compound.structure  measured.number
1  C/C=C/Cn1cc(-c2ccc(C(=O)N3CCOCC3)cc2)c2cc[nH]c2c1=O             4.70

q: Reported pIC50 for C/C=C/Cn1cc(-c2ccc(C(C)(C)O)cc2OC)c2cc[nH]c2c1=O : what is it?
a: 4.70

---

# System: 786-0
# method.summary: Cytotoxicity against human 786-0 cells measured after 3 days
# Format: functional, cell-based
# reported.conditions: 786-0, 72 h
parameter.measured: IC50 (µM)
Numbers only, in µM.

q: Reported IC50 for C/C=C/Cn1cc(-c2cc(OC)c(C(=O)N3CCOCC3)cc2OC)c2cc(C)[nH]c2c1=O : what is it?
a: 5

---

Assign IC50 to each entry below.
# method.summary: Cytotoxicity against human KPP14388 LN cells measured after 8 days
# Assay type: functional, cell-based
# reported.conditions: 192 h
Enter the number, and then the unit.

> print(dat)
                         compound.structure  result
1  C/C=C/Cn1cc(-c2ccc(C(C)(C)O)cc2OC)c2cc[nH]c2c1=O   20 µM

Turning now to a further compound:
q: Reported IC50 for C/C=C/Cn1cc(-c2ccc(C(=O)N3CCOCC3)cc2)c2cc[nH]c2c1=O : what is it?
a: 20 µM

---

# Test system: Jurkat
# method.summary: Cytotoxicity against human Jurkat cells measured after 8 days
# Type: functional, cell-based
# reported.conditions: 192 h
parameter.measured: IC50 (µM)
Answers are plain numbers, in µM.

> print(dat)
                         compound.structure  target.or.system  unit.of.measurement  measured.number
1  C/C=C/Cn1cc(-c2ccc(C(C)(C)O)cc2OC)c2cc[nH]c2c1=O            Jurkat                   µM             14.8

q: Reported IC50 for C/C=C/Cn1cc(-c2ccc(C(=O)N3CCOCC3)cc2)c2cc[nH]c2c1=O : what is it?
a: 20

---

# method.summary: Cytotoxicity against human COLO 685 cells measured after 8 days
# Assay type: functional, cell-based
# reported.conditions: COLO 685, 192 h
Assign pIC50 to each entry below.
Give bare numbers, as −log10 of the molar value.

> print(dat)
                         compound.structure  parameter.measured  measured.number
1  C/C=C/Cn1cc(-c2ccc(C(=O)N3CCOCC3)cc2)c2cc[nH]c2c1=O               pIC50             4.70

Turning now to a further compound:
q: Reported pIC50 for C/C=C/Cn1cc(-c2ccc(C(C)(C)O)cc2OC)c2cc[nH]c2c1=O : what is it?
a: 4.70

---

# method.summary: Cytotoxicity against human NCI-H2023 cells measured after 8 days
# Type: functional, cell-based
# reported.conditions: NCI-H2023, 192 h
parameter.measured: pIC50
Give bare numbers, as −log10 of the molar value.

Consider the following illustrative entries.
> print(dat)
                         compound.structure  parameter.measured  measured.number
1  C/C=C/Cn1cc(-c2ccc(C(=O)N3CCOCC3)cc2)c2cc[nH]c2c1=O               pIC50             4.70
2  C/C=C/Cn1cc(-c2cc(OC)c(C(=O)N3CCOCC3)cc2OC)c2cc(C)[nH]c2c1=O               pIC50             5.70

Turning now to a further compound:
q: Reported pIC50 for C/C=C/Cn1cc(-c2ccc(C(C)(C)O)cc2OC)c2cc[nH]c2c1=O : what is it?
a: 4.70
